Listed next: entries and their corresponding Percent Effect.
- System: Wolbachia pipientis
- Assay Remarks: Anti-Wolbachia Cell-Based Screen
- Assay type: functional
- Set-up: scale not given: in the data most compounds retested in dose-response had high values
- Stated Conditions: 5 µM
The campaign covered roughly 48,000 compounds. About 13,000 (27%) showed an effect of 50% or more. This is one part of the list.
Quantity: Percent Effect (%)

[[record]]
compound = "CCn1nc2c(cc1=O)CN(CCOc1cccc(C#N)c1)CC2"
system = "Wolbachia pipientis"
quantity = "Percent Effect"
measured_value = -9.961

[[record]]
compound = "Cc1nc(CN2C(=O)CC[C@@H]3[C@H]2CCN3C2CCOC2)cs1.O=C(O)C(F)(F)F (some centres not stated)"
system = "Wolbachia pipientis"
quantity = "Percent Effect"
measured_value = 91.6

[[record]]
compound = "CCN(Cc1cc(F)c(OC)c(Cl)c1)Cc1noc(CC(C)C)n1"
system = "Wolbachia pipientis"
quantity = "Percent Effect"
measured_value = -0.0931

[[record]]
compound = "COc1cc(C(C)NCc2scnc2C)ccc1SC(F)F (configuration not stated)"
system = "Wolbachia pipientis"
quantity = "Percent Effect"
measured_value = -45.23

[[record]]
compound = "Cc1ccnn1CC(=O)N1CCN(C2CCc3ccccc3C2)CC1 (configuration not stated)"
system = "Wolbachia pipientis"
quantity = "Percent Effect"
measured_value = -4.494

[[record]]
compound = "O=C(COc1ccc2c(c1)CCC2)NS(=O)(=O)c1cncc(Br)c1"
system = "Wolbachia pipientis"
quantity = "Percent Effect"
measured_value = -16.45

[[record]]
compound = "Cc1cccnc1NC(=O)CSc1ccc2c(c1)OCCO2"
system = "Wolbachia pipientis"
quantity = "Percent Effect"
measured_value = -1.464

[[record]]
compound = "O=C(NCC(=O)N1CC2(CCCC2)c2c(F)cccc21)C1CC1"
system = "Wolbachia pipientis"
quantity = "Percent Effect"
measured_value = -3.819

[[record]]
compound = "NC(=O)c1ccc(N2CCCCC2)c(NC(=O)c2ccc(F)cc2F)c1"
system = "Wolbachia pipientis"
quantity = "Percent Effect"
measured_value = -3.643

[[record]]
compound = "COc1ccc(CN2CCCC(Nc3cccc(F)c3)C2)cc1O (configuration not stated)"
system = "Wolbachia pipientis"
quantity = "Percent Effect"
measured_value = -4.671

[[record]]
compound = "Cc1cc(CCCC(=O)NC2CCN(C)C2=O)c(C)s1 (configuration not stated)"
system = "Wolbachia pipientis"
quantity = "Percent Effect"
measured_value = -2.482

[[record]]
compound = "CC(O)c1cn(CC2CCN(C(=O)CN(C)C(C)C)CC2)nn1 (configuration not stated)"
system = "Wolbachia pipientis"
quantity = "Percent Effect"
measured_value = -14.32


###

Examples of molecules with documented Percent Effect follow.
- Test system: Wolbachia pipientis
- Assay Remarks: Anti-Wolbachia Cell-Based Screen
- Type: functional
- Parameters: scale not given: in the data most compounds retested in dose-response had high values
- Stated Conditions: 5 µM
The campaign covered roughly 48,000 compounds. About 13,000 (27%) showed an effect of 50% or more. The list shows a part of the results.
Quantity: Percent Effect (%)

[[record]]
molecule = "CC(=O)N1CCOC2(CCCN(C(=O)CCN3CCCCC3)C2)C1 (stereo not given)"
quantity = "Percent Effect"
measured_value = -17.75

[[record]]
molecule = "CN(CCc1ccccc1)C(=O)c1cccnc1OCC(F)(F)F"
quantity = "Percent Effect"
measured_value = 147.6

[[record]]
molecule = "CCOCCN1CCN(CCC(=O)N2CCCCC2)CC1"
quantity = "Percent Effect"
measured_value = -4.912

[[record]]
molecule = "O=C(NCc1cccnc1OCC(F)(F)F)N1CCOCC1"
quantity = "Percent Effect"
measured_value = -14.27

[[record]]
molecule = "CCc1noc(C(C)N2CCOCC2)n1 (stereo not given)"
quantity = "Percent Effect"
measured_value = 1.305

[[record]]
molecule = "CC(c1nc(C2CC2)no1)N1CCN(CC(=O)N2CCOCC2)CC1 (stereo not given)"
quantity = "Percent Effect"
measured_value = 99.5

[[record]]
molecule = "CC(c1nc(C2CC2)no1)N1CCN(CCc2ccncc2)CC1 (stereo not given)"
quantity = "Percent Effect"
measured_value = -3.98

[[record]]
molecule = "O=C(CSCCN1CCOCC1)N1CCCCCC1"
quantity = "Percent Effect"
measured_value = 88.11

[[record]]
molecule = "O=C(CCC(=O)N1CCc2ccccc2C1)c1cccs1"
quantity = "Percent Effect"
measured_value = 11.35

[[record]]
molecule = "CC(C)N1Cc2cccc(NCC(=O)N(C)C3CCCCC3)c2C1"
quantity = "Percent Effect"
measured_value = -12.78

[[record]]
molecule = "O=C(c1cccnc1OCC(F)(F)F)N1CCCn2ncnc21"
quantity = "Percent Effect"
measured_value = -8.478

[[record]]
molecule = "O=C(NCCc1ccncc1)c1cccnc1OCC(F)(F)F"
quantity = "Percent Effect"
measured_value = 113.2

[[record]]
molecule = "Cc1cc(C)n(C2CN(c3nc(N)nc4c3CCCC4)C2)n1"
quantity = "Percent Effect"
measured_value = 12.27

[[record]]
molecule = "CC1CCN(C(=O)CSCc2noc(C(C)C)n2)CC1"
quantity = "Percent Effect"
measured_value = -0.6667

[[record]]
molecule = "O=C(NCC(O)c1ccc(F)c(F)c1)c1cccnc1OCC(F)(F)F (stereo not given)"
quantity = "Percent Effect"
measured_value = 8.161

[[record]]
molecule = "CC1CCN(C(=O)CSCCN2CCOCC2)CC1"
quantity = "Percent Effect"
measured_value = 94.74

[[record]]
molecule = "O=C(COCC(F)(F)F)NC1CCCc2cc(OC(F)F)ccc21 (stereo not given)"
quantity = "Percent Effect"
measured_value = -1.083

[[record]]
molecule = "O=C(Cn1cc(I)cn1)N1CCc2ccccc2C1"
quantity = "Percent Effect"
measured_value = 13.89

[[record]]
molecule = "COCCOc1ccccc1C(=O)Nc1c(C)cnn1CC1CC1"
quantity = "Percent Effect"
measured_value = 0.1744

[[record]]
molecule = "CC(c1nc(C(C)(C)C)no1)N1CCN(C(=O)CN2CCOCC2)CC1 (stereo not given)"
quantity = "Percent Effect"
measured_value = 87.21

[[record]]
molecule = "CC(C)(C)c1ccn(C2(C(=O)O)CCN(c3ccncc3F)CC2)n1"
quantity = "Percent Effect"
measured_value = 0.05232

[[record]]
molecule = "Cc1ccc(NC(=O)C(C)N2CCCN(c3nccs3)CC2)c(C)c1 (stereo not given)"
quantity = "Percent Effect"
measured_value = -5.233

[[record]]
molecule = "CC1CCN(C(=O)CSCc2nc(C3CC3)no2)CC1"
quantity = "Percent Effect"
measured_value = 2

[[record]]
molecule = "NCc1cnn(-c2ccccc2C(=O)NCCCn2ccnc2)c1"
quantity = "Percent Effect"
measured_value = -6.38

[[record]]
molecule = "CCc1noc(C(C)N2CCN(Cc3nc(C)c(C)o3)CC2)n1 (stereo not given)"
quantity = "Percent Effect"
measured_value = 17.35


###

- System: Wolbachia pipientis
- Assay Remarks: Anti-Wolbachia Cell-Based Screen
- Format: functional
- Design: scale not given: in the data most compounds retested in dose-response had high values
- Stated Conditions: 5 µM
The whole screen tested about 48,000 compounds, of which about 13,000 (27%) showed an effect of 50% or more. The list shows a part of the results.
Percent Effect for assorted molecules
Quantity: Percent Effect

[[record]]
molecule = "CNS(=O)(=O)c1csc(C(=O)NCc2sccc2C)c1"
quantity = "Percent Effect"
measured_value = "-10.67%"

[[record]]
molecule = "Cc1ccsc1CN(C)CCc1scnc1C"
quantity = "Percent Effect"
measured_value = "3.291%"

[[record]]
molecule = "CCN(Cc1ccco1)C(=O)NCC(c1cccs1)N(C)C (configuration not stated)"
quantity = "Percent Effect"
measured_value = "-4.593%"

[[record]]
molecule = "CCC(C)N(Cc1sccc1C)C(=O)c1cc(N)ccn1 (configuration not stated)"
quantity = "Percent Effect"
measured_value = "107.3%"

[[record]]
molecule = "Cc1cc(C)c(CNC(=O)N(C)Cc2sccc2C)c(=O)[nH]1"
quantity = "Percent Effect"
measured_value = "-0.6521%"

[[record]]
molecule = "Cc1ccsc1CN(Cc1ncccc1C(=O)O)C1CC1"
quantity = "Percent Effect"
measured_value = "-1.02%"

[[record]]
molecule = "Cc1ccsc1CNC(=O)CSc1nnc[nH]1"
quantity = "Percent Effect"
measured_value = "-7.3%"


###

Below: a set of entries, each annotated with reported Percent Effect.
- System: Wolbachia pipientis
- Assay Remarks: Anti-Wolbachia Cell-Based Screen
- Assay type: functional
- Parameters: scale not given: in the data most compounds retested in dose-response had high values
- Stated Conditions: 5 µM
Out of some 48,000 compounds screened, about 13,000 (27%) showed an effect of 50% or more. This is one part of the list.
Quantity: Percent Effect (%)

[[record]]
compound = "CCc1cnc(N2CCc3ncnc(N4CCN(C)CC4)c3CC2)nc1.O=C(O)C(F)(F)F"
system = "Wolbachia pipientis"
quantity = "Percent Effect"
measured_value = -0.8279

[[record]]
compound = "COCC1CN(Cc2ccoc2)Cc2cn(CC3CCCC3)nc21 (stereo not given)"
system = "Wolbachia pipientis"
quantity = "Percent Effect"
measured_value = -3.642

[[record]]
compound = "CNC(=O)c1cc2c(nc1N(C)C)CCN(c1ncccn1)CC2.O=C(O)C(F)(F)F"
system = "Wolbachia pipientis"
quantity = "Percent Effect"
measured_value = 100.6

[[record]]
compound = "CNC(=O)c1cc2c(nc1NCC(C)C)CCN(C)CC2.O=C(O)C(F)(F)F.O=C(O)C(F)(F)F"
system = "Wolbachia pipientis"
quantity = "Percent Effect"
measured_value = -3.691

[[record]]
compound = "CNC(=O)c1cc2c(nc1N(C)C)CCN(c1ncc(F)cn1)CC2.O=C(O)C(F)(F)F"
system = "Wolbachia pipientis"
quantity = "Percent Effect"
measured_value = 86.67

[[record]]
compound = "Cc1nn(C)cc1C(=O)N1CCCN(C2Cc3ccccc3C2)CC1"
system = "Wolbachia pipientis"
quantity = "Percent Effect"
measured_value = -1.892

[[record]]
compound = "O=C(C1CCCCC1)N1CCCC2(CCN(c3cnccn3)CC2)C1.O=C(O)C(F)(F)F"
system = "Wolbachia pipientis"
quantity = "Percent Effect"
measured_value = 1.174

[[record]]
compound = "CNC(=O)c1cc2c(nc1N(C)C)CCN(S(=O)(=O)CC(C)C)CC2.O=C(O)C(F)(F)F"
system = "Wolbachia pipientis"
quantity = "Percent Effect"
measured_value = -14.6

[[record]]
compound = "CNC(=O)c1cc2c(nc1N(C)C)CCN(C)CC2.O=C(O)C(F)(F)F.O=C(O)C(F)(F)F"
system = "Wolbachia pipientis"
quantity = "Percent Effect"
measured_value = 0.7225

[[record]]
compound = "O=C(O)C(F)(F)F.O=C(c1cccnc1)N1CCOC2(COCCN(c3cncnc3)C2)C1 (stereo not given)"
system = "Wolbachia pipientis"
quantity = "Percent Effect"
measured_value = -2.912

[[record]]
compound = "O=C(c1ccc[nH]1)N1CC2(CCN(c3ncccn3)C2)C1"
system = "Wolbachia pipientis"
quantity = "Percent Effect"
measured_value = -13.43

[[record]]
compound = "CN(C)C(=O)CNC(=O)CCn1ncc2c(Cl)cccc21"
system = "Wolbachia pipientis"
quantity = "Percent Effect"
measured_value = 7.628

[[record]]
compound = "CNC(=O)c1cc2c(nc1N(C)C)CCN(S(=O)(=O)N(C)C)CC2.O=C(O)C(F)(F)F"
system = "Wolbachia pipientis"
quantity = "Percent Effect"
measured_value = -4.998

[[record]]
compound = "Cc1nc(C)c(C(=O)NCC(c2ccccc2Cl)N2CCOCC2)s1 (stereo not given)"
system = "Wolbachia pipientis"
quantity = "Percent Effect"
measured_value = 6.115

[[record]]
compound = "O=C(c1cccnc1)N1CCOCC2(CCN(c3ncccn3)C2)C1 (stereo not given)"
system = "Wolbachia pipientis"
quantity = "Percent Effect"
measured_value = 104.1

[[record]]
compound = "Cc1cccc(S(=O)(=O)NCC(C)N2CCN(C)CC2)c1Cl (stereo not given)"
system = "Wolbachia pipientis"
quantity = "Percent Effect"
measured_value = -7.911

[[record]]
compound = "COc1cccc([C@@]2(O)CC[C@@H]3CN(C(=O)c4cn(C)nc4C)C[C@@H]32)c1"
system = "Wolbachia pipientis"
quantity = "Percent Effect"
measured_value = 91.14

[[record]]
compound = "CCc1cnc(N2CCc3cc(C(=O)NC)c(N(C)C)nc3CC2)nc1.O=C(O)C(F)(F)F"
system = "Wolbachia pipientis"
quantity = "Percent Effect"
measured_value = 91.47

[[record]]
compound = "O=C(C1CCCO1)N1CCCC2(CCN(c3cccnc3)CC2)C1.O=C(O)C(F)(F)F (stereo not given)"
system = "Wolbachia pipientis"
quantity = "Percent Effect"
measured_value = 111.1

[[record]]
compound = "CNC(=O)c1cc2c(nc1N(C)C)CCN(c1ncc(C)cn1)CC2.O=C(O)C(F)(F)F"
system = "Wolbachia pipientis"
quantity = "Percent Effect"
measured_value = 101.6

